- assay info: Metabolic stability in human liver microsomes assessed as intrinsic clearance
- Format: ADME, Microsome
- experimental parameters: read-out: CLH
reported endpoint: microsomal CLint

[
  {
    "smiles record": "COc1cc(C(=O)NC[C@](O)(c2cc(C(C)(C)O)c(F)c(-c3ccc(F)cc3)n2)C(F)(F)F)cc2cc(C)c(C)nc12",
    "reported endpoint": "microsomal CLint",
    "experimental result": "> 347 µL/min/mg"
  }
]

====

- assay info: AUC (0 to last) in Balb/c mouse at 10 mg/kg, po measured upto 24 hrs by LC-MS/MS analysis
- Format: ADME, organism-based
- experimental parameters: in vivo
reported endpoint: AUC(0-t) at 24 h (ng·h/mL)

[
  {
    "smiles record": "COc1cc(C(=O)NC[C@](O)(c2cc(C(C)(C)O)c(F)c(-c3ccc(F)cc3)n2)C(F)(F)F)cc2cc(C)nnc12",
    "unit of measurement": "ng·h/mL",
    "experimental result": 9580
  }
]
